All figures here come from ChEMBL document CHEMBL1143105.

- Test system: Hepatitis C virus
- PROCEDURE TEXT: Antiviral activity in hepatitis C virus by cell based replicon assay
- Format: functional, organism-based, Hepacivirus hominis
pEC50: −log10 of the molar value.
Recorded pEC50, one value per entry.
MEASURED PROPERTY: pEC50

* C[C@@H](NC(=O)N[C@H](C(=O)N1C[C@H]2[C@@H]([C@H]1C(=O)NC(CC1CCC1)C(=O)C(N)=O)C2(Cl)Cl)C1CCCCC1)C(C)(C)C (stereo partly drawn) | 7.40
* CC(C)(C)OC(=O)N[C@H](C(=O)N1C[C@H]2[C@@H]([C@H]1C(=O)NC(CC1CCC1)C(=O)C(N)=O)C2(Cl)Cl)C1CCCCC1 (stereo partly drawn) | 6.52
* CC(C)(C)OC(=O)N[C@H](C(=O)N1C[C@H]2[C@@H]([C@H]1C(=O)NC(CC1CCC1)C(=O)C(N)=O)C2(Cl)Cl)C(C)(C)C (stereo partly drawn) | 7.00
